Exercise: state measured Keq (S-S*) for each of the binders provided.
- tgt: T1, NativeRPtag(large)_with_Tags_and_Cys (Thermoanaerobacter tengcongensis)
- T1 construct: Unlabeled in anisotropy assays; coupled through the engineered N-terminal Cys to SulfoLink agarose or maleimide plates in column, pull-down and ELISA assays
- T1 chain: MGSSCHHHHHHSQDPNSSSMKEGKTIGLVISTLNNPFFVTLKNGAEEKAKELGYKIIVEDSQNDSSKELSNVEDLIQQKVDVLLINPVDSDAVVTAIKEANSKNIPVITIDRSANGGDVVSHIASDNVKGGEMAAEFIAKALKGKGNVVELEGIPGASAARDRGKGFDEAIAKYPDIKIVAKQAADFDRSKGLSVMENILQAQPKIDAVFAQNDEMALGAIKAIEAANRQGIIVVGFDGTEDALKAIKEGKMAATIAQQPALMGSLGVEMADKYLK
- assay-details: fluorescence anisotropy, association kinetics
No end group written: not given here. *: point of attachment. RhodamineB = CCN(CC)c1ccc2c(-c3ccccc3C(=O)*)c3ccc(=[N+](CC)CC)cc-3oc2c1

Here is how some binders turned out for Keq (S-S*).
RhodamineB-GAKIPNFIPAELKLITKENVQ [RPtag(small) e2a] | 1.9
RhodamineB-GEKIPNFIPAELKLITKENV [RPtag(small) Cd1] | 2.5
RhodamineB-KIPNFIPAELKLITK [RPtag(small) Nd2, Cd4] | 0.7

API: the following record is the query input.
Q: Report Keq (S-S*) for RhodamineB-GEKIPNFIPAELKLITKE [RPtag(small) Cd3]
Ans: 3.1
